Assign viability, T/C to each entry below.
# System: 186277-243-T-J2-PDC multi-cell spheroid viability;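 further: spheroids exposed to compounds for seven days before viability reading; 100% = DMSO vehicle control viability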
# experiment: Anticancer human tumor 186277-243-T-J2-PDC patient-derived colon adenocarcinoma cell line growth inhibition [PI3K]
# conditions: second compound 1 µM; first compound 0.316 µM; hits give low values
Kindly provide the numeric value in % only, without the unit symbol.

get_value(item= CCN1CCN(Cc2ccc(Nc3ncc(F)c(-c4cc(F)c5nc(C)n(C(C)C)c5c4)n3)nc2)CC1 + COc1c(OCCCN2CCOCC2)ccc2c3n(c(=NC(=O)c4cnc(N)nc4)nc12)CCN3 , readout=viability, T/C) returns 7

get_value(item= C=CC(=O)N1CCN(c2nc(=O)n(-c3c(C)ccnc3C(C)C)c3nc(-c4c(O)cccc4F)c(F)cc23)C(C)C1 (centres undefined) + CC(Nc1ncnc2nc[nH]c12)c1cc2cccc(Cl)c2c(=O)n1-c1ccccc1 , readout=viability, T/C) returns 116

get_value(item= Cn1nccc1Nc1nccc(-c2ccn(C(CO)c3ccc(Cl)c(F)c3)c(=O)c2)n1 (centres undefined) + CC(Nc1ccc2c(c1)OCCn1cc(N3C(=O)OCC3C(F)F)nc1-2)C(N)=O , readout=viability, T/C) returns 14.2

get_value(item= CC(C)NCC(C(=O)N1CCN(c2ncnc3c2C(C)CC3O)CC1)c1ccc(Cl)cc1 (centres undefined) + Cc1nc(NC(=O)N2CCCC2C(N)=O)sc1-c1ccnc(C(C)(C)C(F)(F)F)c1 , readout=viability, T/C) returns 45.4

get_value(item= C[C@@H](NC(=O)c1ncnc(N)c1Cl)c1ncc(C(=O)Nc2cc(C(F)(F)F)c(Cl)cn2)s1 + Cc1nc(NC(=O)N2CCCC2C(N)=O)sc1-c1ccnc(C(C)(C)C(F)(F)F)c1 , readout=viability, T/C) returns 102

get_value(item= CC(Cn1ccc(-c2ccc(C#N)c(Cl)c2)n1)NC(=O)c1cc(C(C)O)[nH]n1 (centres undefined) + Cc1nc(NC(=O)N2CCCC2C(N)=O)sc1-c1ccnc(C(C)(C)C(F)(F)F)c1 , readout=viability, T/C) returns 86

get_value(item= Cn1ncc(Cl)c1-c1cc(C(=O)NC(CN)Cc2cccc(F)c2)sc1Cl (centres undefined) + CC(Nc1ccc2c(c1)OCCn1cc(N3C(=O)OCC3C(F)F)nc1-2)C(N)=O , readout=viability, T/C) returns 12.5

get_value(item= CC(C)NCC(C(=O)N1CCN(c2ncnc3c2C(C)CC3O)CC1)c1ccc(Cl)cc1 (centres undefined) + CC(Nc1ncnc2nc[nH]c12)c1cc2cccc(Cl)c2c(=O)n1-c1ccccc1 , readout=viability, T/C) returns 63.8

get_value(item= C[C@@H](NC(=O)c1ncnc(N)c1Cl)c1ncc(C(=O)Nc2cc(C(F)(F)F)c(Cl)cn2)s1 + CC(Nc1ncnc2nc[nH]c12)c1cc2cccc(Cl)c2c(=O)n1-c1ccccc1 , readout=viability, T/C) returns 96.7

get_value(item= CCN1CCN(Cc2ccc(Nc3ncc(F)c(-c4cc(F)c5nc(C)n(C(C)C)c5c4)n3)nc2)CC1 + CC(Nc1ccc2c(c1)OCCn1cc(N3C(=O)OCC3C(F)F)nc1-2)C(N)=O , readout=viability, T/C) returns 31

get_value(item= CC1(C)CCC(Nc2ncc(C(F)(F)F)c(-c3c[nH]c4c(P(C)(C)=O)c(C#N)ccc34)n2)CN1 (centres undefined) + Cc1nc(NC(=O)N2CCCC2C(N)=O)sc1-c1ccnc(C(C)(C)C(F)(F)F)c1 , readout=viability, T/C) returns 49.5

get_value(item= Cn1ncc(Cl)c1-c1cc(C(=O)NC(CN)Cc2cccc(F)c2)sc1Cl (centres undefined) + Cc1nc(NC(=O)N2CCCC2C(N)=O)sc1-c1ccnc(C(C)(C)C(F)(F)F)c1 , readout=viability, T/C) returns 25

get_value(item= CCN1CCN(Cc2ccc(Nc3ncc(F)c(-c4cc(F)c5nc(C)n(C(C)C)c5c4)n3)nc2)CC1 + CC(Nc1ncnc2nc[nH]c12)c1cc2cccc(Cl)c2c(=O)n1-c1ccccc1 , readout=viability, T/C) returns 155

get_value(item= CNC(=O)c1ccc(N2C(=S)N(c3ccc(C#N)c(C(F)(F)F)c3)C(=O)C2(C)C)cc1F + COc1c(OCCCN2CCOCC2)ccc2c3n(c(=NC(=O)c4cnc(N)nc4)nc12)CCN3 , readout=viability, T/C) returns 3.19

get_value(item= CCN1CCN(Cc2ccc(Nc3ncc(F)c(-c4cc(F)c5nc(C)n(C(C)C)c5c4)n3)nc2)CC1 + Cc1nc(NC(=O)N2CCCC2C(N)=O)sc1-c1ccnc(C(C)(C)C(F)(F)F)c1 , readout=viability, T/C) returns 74

get_value(item= CC(Cn1ccc(-c2ccc(C#N)c(Cl)c2)n1)NC(=O)c1cc(C(C)O)[nH]n1 (centres undefined) + CC(Nc1ncnc2nc[nH]c12)c1cc2cccc(Cl)c2c(=O)n1-c1ccccc1 , readout=viability, T/C) returns 114

get_value(item= Cn1nccc1Nc1nccc(-c2ccn(C(CO)c3ccc(Cl)c(F)c3)c(=O)c2)n1 (centres undefined) + CC(Nc1ncnc2nc[nH]c12)c1cc2cccc(Cl)c2c(=O)n1-c1ccccc1 , readout=viability, T/C) returns 103

get_value(item= CC1(C)CCC(Nc2ncc(C(F)(F)F)c(-c3c[nH]c4c(P(C)(C)=O)c(C#N)ccc34)n2)CN1 (centres undefined) + CC(Nc1ncnc2nc[nH]c12)c1cc2cccc(Cl)c2c(=O)n1-c1ccccc1 , readout=viability, T/C) returns 60.8

get_value(item= C#Cc1c(F)ccc2cc(O)cc(-c3ncc4c(N5CC6CCC(C5)N6)nc(OCC56CCCN5CC(F)C6)nc4c3F)c12 (centres undefined) + COc1c(OCCCN2CCOCC2)ccc2c3n(c(=NC(=O)c4cnc(N)nc4)nc12)CCN3 , readout=viability, T/C) returns 0.53

get_value(item= C#Cc1c(F)ccc2cc(O)cc(-c3ncc4c(N5CC6CCC(C5)N6)nc(OCC56CCCN5CC(F)C6)nc4c3F)c12 (centres undefined) + Cc1nc(NC(=O)N2CCCC2C(N)=O)sc1-c1ccnc(C(C)(C)C(F)(F)F)c1 , readout=viability, T/C) returns 10.3

get_value(item= Cn1ncc(Cl)c1-c1cc(C(=O)NC(CN)Cc2cccc(F)c2)sc1Cl (centres undefined) + CC(Nc1ncnc2nc[nH]c12)c1cc2cccc(Cl)c2c(=O)n1-c1ccccc1 , readout=viability, T/C) returns 48

get_value(item= CC(C)NCC(C(=O)N1CCN(c2ncnc3c2C(C)CC3O)CC1)c1ccc(Cl)cc1 (centres undefined) + CC(Nc1ccc2c(c1)OCCn1cc(N3C(=O)OCC3C(F)F)nc1-2)C(N)=O , readout=viability, T/C) returns 24.5

get_value(item= CC1(C)CCC(Nc2ncc(C(F)(F)F)c(-c3c[nH]c4c(P(C)(C)=O)c(C#N)ccc34)n2)CN1 (centres undefined) + CC(Nc1ccc2c(c1)OCCn1cc(N3C(=O)OCC3C(F)F)nc1-2)C(N)=O , readout=viability, T/C) returns 22.6

get_value(item= CNC(=O)c1ccc(N2C(=S)N(c3ccc(C#N)c(C(F)(F)F)c3)C(=O)C2(C)C)cc1F + Cc1nc(NC(=O)N2CCCC2C(N)=O)sc1-c1ccnc(C(C)(C)C(F)(F)F)c1 , readout=viability, T/C) returns 111
